All figures here come from patent US12474342B2.

Tested on: HL-60 cells
Experiment: Apoptosis (caspase 3/7 activation), HL-60
Type: cell-based, human
Details: Homo sapiens, read-out: Compound D-induced Apoptosis EC50; HL-60, 72 hr
assay readout: EC50 (nM)

- compound: "O=C1CCC(N2Cc3cc(CNC(=O)C(F)(F)c4ccc(Cl)cc4)ccc3C2=O)C(=O)N1 (stereo not shown) [Compound D]"
  unit spec: "nM"
  value observed: 8

====

Test system: OCI-AML2 cells
Assay: Apoptosis (caspase 3/7 activation), OCI-AML2
Type: cell-based, human
Settings: Homo sapiens, read-out: Compound D-induced Apoptosis EC50; OCI-AML2, 48 hr

- compound: "O=C1CCC(N2Cc3cc(CNC(=O)C(F)(F)c4ccc(Cl)cc4)ccc3C2=O)C(=O)N1 (stereo not shown) [Compound D]"
  EC50: "81 nM"

====

System: AML-193 cells
Test: Apoptosis (caspase 3/7 activation), AML-193
Assay type: cell-based, human
Conditions: Homo sapiens, read-out: Compound D-induced Apoptosis EC50; AML-193, 72 hr

- compound: "O=C1CCC(N2Cc3cc(CNC(=O)C(F)(F)c4ccc(Cl)cc4)ccc3C2=O)C(=O)N1 (stereo not shown)"
  target: "AML-193 cells"
  EC50: "47 nM"

====

System: KG-1a cells
Experiment: Anti-proliferation 72-hour CTG assay, KG-1a
Type: cell-based
Conditions: Homo sapiens, read-out: IC50 of the anti-proliferative effect
pIC50: −log10 of the molar value.
assay readout: pIC50

- compound: "O=C1CCC(N2Cc3cc(CNC(=O)C(F)(F)c4ccc(Cl)cc4)ccc3C2=O)C(=O)N1 (stereo not shown)"
  assay readout: "pIC50"
  value observed: 7.68

====

System: HNT-34 cells
Experiment: Apoptosis (caspase 3/7 activation), HNT-34
Format: cell-based, human
Conditions: Homo sapiens, read-out: Compound D-induced Apoptosis EC50; HNT-34, 24 hr

- compound: "O=C1CCC(N2Cc3cc(CNC(=O)C(F)(F)c4ccc(Cl)cc4)ccc3C2=O)C(=O)N1 (stereo not shown)"
  EC50 (nM): 7
